Each entry below carries its reported IC50.
# EXPERIMENTAL TARGET: Tuberculosinyl adenosine transferase (Mycobacterium tuberculosis (strain CDC 1551 / Oshkosh), UniProt P9WJ60)
# Sequence (P9WJ60 whole entry): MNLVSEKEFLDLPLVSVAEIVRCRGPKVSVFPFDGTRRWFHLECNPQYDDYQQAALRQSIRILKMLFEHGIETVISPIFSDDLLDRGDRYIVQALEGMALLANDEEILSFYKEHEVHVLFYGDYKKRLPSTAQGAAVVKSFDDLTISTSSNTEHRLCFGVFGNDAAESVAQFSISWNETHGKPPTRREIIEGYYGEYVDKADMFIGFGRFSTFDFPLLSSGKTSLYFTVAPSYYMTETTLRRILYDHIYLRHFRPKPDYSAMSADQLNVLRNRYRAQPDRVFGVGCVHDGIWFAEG
# ASSAY TEXT: Rv3378c Inhibition Assay

STRUCTURE SMILES STRING | IC50 [nM]
C(=C\c1cc2ccc(C3=NCCN3)cc2[nH]1)/c1cc2ccc(C3=NCCN3)cc2[nH]1 | 660
O=C(Nc1cccc(C2=NCCN2)c1)c1ccc(-c2ccc(C(=O)Nc3cccc(C4=NCCN4)c3)cc2)cc1 | 96000
O=P(O)(O)C(O)(Cc1cccc(-c2cccc3c2oc2ccccc23)c1)P(=O)(O)O | 210

----------
# EXPERIMENTAL TARGET: Decaprenyl diphosphate synthase (Mycobacterium tuberculosis (strain CDC 1551 / Oshkosh))
# Sequence (P9WFF6 whole entry): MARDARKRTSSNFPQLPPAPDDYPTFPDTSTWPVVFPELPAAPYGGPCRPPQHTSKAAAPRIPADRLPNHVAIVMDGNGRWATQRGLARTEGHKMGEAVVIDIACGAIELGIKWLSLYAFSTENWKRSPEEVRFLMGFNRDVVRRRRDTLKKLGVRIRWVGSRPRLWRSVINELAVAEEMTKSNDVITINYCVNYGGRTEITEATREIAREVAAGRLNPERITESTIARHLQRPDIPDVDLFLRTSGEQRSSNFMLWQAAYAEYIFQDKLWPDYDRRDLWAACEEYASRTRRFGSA
# ASSAY TEXT: DPPS Inhibition (trans FPP based) Assay
# CONDITION LABEL: pH 7.5
pIC50: −log10 of the molar value.
Binning scheme for pIC50: label 0 = under 4, label 1 = from 4 up to 5, label 2 = 5 and over

STRUCTURE SMILES STRING | DISCRETE LABEL
O=P(O)(O)C(CNc1cccc(-c2ccccc2)c1)P(=O)(O)O | label 1
O=P(O)(O)C(O)(Cc1cccc(-c2cccc3c2oc2ccccc23)c1)P(=O)(O)O | label 1
O=P(O)(O)C(O)(Cc1cccc(-c2cccc(-c3ccccc3)c2)c1)P(=O)(O)O | label 1
O=P(O)(O)C(O)(Cc1cccc(-c2cc(F)cc(F)c2)c1)P(=O)(O)O | label 2
O=P(O)(O)C(O)(Cc1ccc(-c2ccccc2-c2ccccc2)cc1)P(=O)(O)O | label 2
O=P(O)(O)C(O)(CCc1cccc(-c2cccc3c2oc2ccccc23)c1)P(=O)(O)O | label 0
O=C(c1ccccc1)c1ccc(OCCCCCC[n+]2ccccc2)cc1 | label 0
O=P(O)(O)C(Nc1cccc(-c2ccccc2)c1)P(=O)(O)O | label 2
O=P(O)(O)C(CCCc1ccc(-c2ccccc2)cc1)P(=O)(O)O | label 2
O=P(O)(O)C(O)(c1cccc(-c2ccccc2)c1)P(=O)(O)O | label 1
C=CCN(C)CCCCCCCCCCCCCCCC(=O)OC | label 0
O=P(O)(O)C(O)(CCc1cccc(-c2ccccc2-c2ccccc2)c1)P(=O)(O)O | label 1
O=P(O)(O)C(O)(Cc1cccc(-c2cccc(NS(=O)(=O)c3cccc(S(=O)(=O)Nc4cccc(-c5cccc(CC(O)(P(=O)(O)O)P(=O)(O)O)c5)c4)c3)c2)c1)P(=O)(O)O | label 2
O=P(O)(O)C(O)(CCc1cccc(-c2cccc(-c3ccccc3)c2)c1)P(=O)(O)O | label 1

Values from BindingDB's records for doi:10.1111/cbdd.12463
